- target_under_test: T1, human LILRB1 recombinant protein (human, UniProt Q8NHL6 24-461)
- T1 construct: The ELISA method says only 'LILRB1 recombinant proteins' coated on plates; also called leukocyte immunoglobulin-like receptor subfamily B member 1
- experimental_details: ELISA, B cell supernatant
measurement_name: OD450 (OD450)
Number in OD450, nothing else.

Use the examples below as a reference point.
>  <binder>
mAb of B cell clone 79 (supernatant) (antibody, V domains shown, rabbit; also called B1-#79) VH: QSLEESGGGLVQPEGSLTLTCTVSGFSFSSSWYMCWVRQAPGKGLEWIACIYTLRSGAAHYANWAKGRFTISKASSTTVTLQMNSLTAADTATYFCARATYAYAGAGDLWGPGTLVTVSS VL: ELVLTQTPSSVSAAVGGTVTINCQASEDIDRYLAWYQQKPGQRPKLLIVDASTLPSGVPSRFKGSGSGTEFTLTISDLECADGATYYCQSYDNSDNNGFGGGTEVVVK

>  <unit_of_measure>
OD450

>  <measurement>
2.32

$$$$
>  <binder>
mAb of B cell clone 74 (supernatant) (antibody, V domains shown, rabbit; also called B1-#74) VH: QSLEESGGGLVKPGASLTLTCTASGFSLNRYYMCWVRQAPGKGLEWIGCIYSGSGSTYYASWAKGRFTISKTSSTTVTLQMTSLPAADTATYFCGRLDYRVIYAFNLWGPGTLVTISS VL: ELVLTQTPASVSAAVGGTVTINCQASQSIGSGNLAWYQQKPGQPPKLLIYLASTLASGVPPRFKGSGSGTEFTLTISDLECDDAATYYCQYTYYGTTYDNAFGGGTELEIK

>  <unit_of_measure>
OD450

>  <measurement>
2.4

$$$$
>  <binder>
mAb of B cell clone 56 (supernatant) (antibody, V domains shown, rabbit; also called B1-#56) VH: QSLEESGGDLVQPEGSLTLTCTASGFSFSINLYMCWVRQAPGKGLEWIACIYGNNNANTYYTTWAKGRFTISKTSPTTVTLQMTSLTGADTATYFCARDTAAYYAFSLWGPGTLVTISS VL: ELVMTQTPSSSSAAVGGTVTIKCQASQSIGSRFAWYQQKPGQRPKLLIYEASKLPSGVPSRFKGSGSGTEFTLTISDLECADAAIYYCQCTYYESSSGGGFGGGTEVVVK

>  <unit_of_measure>
OD450

>  <measurement>
2.09

$$$$
>  <binder>
mAb of B cell clone 190 (supernatant) (antibody, V domains shown, rabbit; also called B1-#190) VH: QEQLKESGGDLVKPEGSLTLTCTASGFSFSSDYWVCWVRQAPGKGPEWIGCIYTGDDDTYYASWAKGRFTISKTSSTTVTLEVTSLTAADTATYFCARGLTIGTAELYFWGPGTVVTVSS VL: ELVLTQTPSPVSAAVGGTVTINCQASQSISNELSWYQQKPGQPPKLLIYLASTLDSGVPSRFKGSGSGTQFTLTISDLECADAATYYCQSHYYGGSSDYGWAFGGGTEVVVK

>  <unit_of_measure>
OD450

>  <measurement>
1.9

$$$$
>  <binder>
mAb of B cell clone 41 (supernatant) (antibody, V domains shown, rabbit; also called B1-#41-1) VH: QSVKESGGDLVKPGASLTLTCTASGFSFSSSYWICWVRQAPGKGLEWIACIYAGSSGSTYYASWAKGRFTISKTSSTTVTLQMTSLTAADTATYFCARSTSGSYGAGLGLWGPGTLVTISS VL: ELDMTQTASPVSGAVGGTVTIKCQASQNIYNNIGWYQQKPGQPPNLLIYGPSYLASGVPSRFKGSRSGTEYTLTISDLECADAATYYCQSDDWMSISPDIVFGGGTEVEIK

>  <unit_of_measure>
OD450

>  <measurement>
2.26

$$$$

Quick one: give measured OD450 for mAb of B cell clone 125 (supernatant) (antibody, V domains shown, rabbit) VH: EQSLEESGGGLVQPEGSLTLTCTASGFSFTKNYYMCWVRQAPGKGLEWIGCIYAGSTNTFYASWAKGRFTISKASSTTVDLKMTSLTVADTATYFCARDFVSYLNLWGPGTLVTVSS VL: ELDLTQTPSSSSAAVGGTVTINCQASQSVYNKNYLSWFQQKPGQPPKLLIYYASTLASGVPSRFKGSGSGTEFTLTISDVVCDDAATYYCAAYKGVSDDGISFGGGTEVEIK
2.43

Name the recorded OD450 of the item mAb of B cell clone 167 (supernatant) (antibody, V domains shown, rabbit) VH: EQLMEESGGGLVQPEGSLTLTCTASRFSLSNMNVMCWVRQAPGKGLEWIGCINIGGTNIWYASWAKGRFTISKTSSTTVTLQMTSLTVADTATYFCARSYITDRIYDYDFWGPGTLVTISS VL: ELDMTQTPSPVSAAVGGSVTISCQASQTIYNNKNLAWYQQKPGQPPKLLIYQASKLASGVSSRFSGSGSGTQFTLTISGVQCDDAATYYCQGEFSCSSGDCTTFGGGTEVVVK in your answer.
1.12

Return OD450 for the following binder: mAb of B cell clone 27 (supernatant) (antibody, V domains shown, rabbit; also called B1-#27) VH: EQSVKESGGGLVQPEGSLTLTCTVSGFSFSGSYWICWVRQAPGKGLEWIACIYGDSIATYYPNWAKGRFTISKTSSTTVTLQMASLTGADTATYFCARDRNGGSGAYGWDLWGPGTLVTISS VL: ELDLTQTPASVSEPVGGTVTITCQASQSISSYLSWYQQTPGQPPKLLIYKASTLASGVPSRFKGSGSGTEFTLTISDLECADAATYYCQSYYYISATVDNTFGGGTEVEIK
2.56
